Biological target: HLA-A*30:01
Assay: IEDB peptide-MHC binding, purified MHC/competitive/radioactivity; filed as Kd, often an IC50 or EC50 that approximates it; bounds were set here for any values at or beyond the usual limits of such assays
Settings: source organism: Mammarenavirus whitewaterense
result.type: pKd
Answers are plain numbers, as −log10 of the molar value.

Give pKd (HLA-A*30:01) of the following sequence: ATTNAHCALL 5.63

---

Molecular target: HLA-A*69:01
Assay: IEDB peptide-MHC binding, purified MHC/direct/fluorescence; filed as Kd, often an IC50 or EC50 that approximates it; bounds were set here for any values at or beyond the usual limits of such assays
Details: source organism: Mycobacterium tuberculosis C
pKd: −log10 of the molar value.
result.type: pKd

Record request: pKd value, item IIRTENRPL ≤ 4.70

---

Molecular target: HLA-A*02:12
Assay: IEDB peptide-MHC binding, purified MHC/direct/fluorescence; filed as Kd, often an IC50 or EC50 that approximates it; bounds were set here for any values at or beyond the usual limits of such assays
Details: source organism: Toxoplasma gondii
pKd: −log10 of the molar value.
result.type: pKd

Give pKd (HLA-A*02:12) of the following sequence: VSSHKGWAK ≤ 4.70

---

Biological target: HLA-A*11:01
Assay: IEDB peptide-MHC binding, purified MHC/direct/fluorescence; filed as Kd, often an IC50 or EC50 that approximates it; bounds were set here for any values at or beyond the usual limits of such assays
Conditions: source organism: SARS-CoV1
pKd: −log10 of the molar value.
result.type: pKd

Record request: pKd value, item TPKGPKVKY ≤ 4.34

---

Biological target: HLA-B*46:01
Test: IEDB peptide-MHC binding, purified MHC/direct/fluorescence; filed as Kd, often an IC50 or EC50 that approximates it; bounds were set here for any values at or beyond the usual limits of such assays
Details: source organism: Burkholderia mallei
result.type: Kd

Record request: Kd value, item IQRRGAQFQ ≥ 20 µM

---

Target: HLA-A*24:03
Experiment: IEDB peptide-MHC binding, purified MHC/direct/fluorescence; filed as Kd, often an IC50 or EC50 that approximates it; bounds were set here for any values at or beyond the usual limits of such assays
Conditions: source organism: Yersinia enterocolitica subsp. enterocolitica 8081
pKd: −log10 of the molar value.
result.type: pKd

Record request: pKd value, item KSRQGDTKV ≤ 4.70

---

Biological target: HLA-B*39:01
Assay: IEDB peptide-MHC binding, purified MHC/competitive/fluorescence; filed as Kd, often an IC50 or EC50 that approximates it; bounds were set here for any values at or beyond the usual limits of such assays
Details: source organism: Influenza A virus (A/X-31(H3N2))
result.type: Kd

Record request: Kd value, item CFMYSDFHF ≥ 20 µM

---

Target: HLA-B*39:01
Test: IEDB peptide-MHC binding, purified MHC/direct/fluorescence; filed as Kd, often an IC50 or EC50 that approximates it; bounds were set here for any values at or beyond the usual limits of such assays
Settings: source organism: Ebola virus - Gabon (1994-1997)
result.type: Kd

Record request: Kd value, item AKATGRYNL 780 nM

---

Target: HLA-A*02:01
Test: IEDB peptide-MHC binding, purified MHC/competitive/fluorescence; filed as Kd, often an IC50 or EC50 that approximates it; bounds were set here for any values at or beyond the usual limits of such assays
Details: source organism: Encephalitozoon cuniculi GB-M1
result.type: Kd (nM)
Give bare numbers, in nM.

Give Kd (HLA-A*02:01) of the following sequence: GVYGGLCLA 2.5

---

Target: HLA-B*18:01
Test: IEDB peptide-MHC binding, purified MHC/direct/fluorescence; filed as Kd, often an IC50 or EC50 that approximates it; bounds were set here for any values at or beyond the usual limits of such assays
Conditions: source organism: Orthohantavirus sinnombreense
pKd: −log10 of the molar value.
result.type: pKd

Record request: pKd value, item FRYKSRCYV ≤ 4.70

---

Target: HLA-A*02:19
Experiment: IEDB peptide-MHC binding, purified MHC/direct/fluorescence; filed as Kd, often an IC50 or EC50 that approximates it; bounds were set here for any values at or beyond the usual limits of such assays
Details: source organism: Orthohantavirus tulaense
result.type: Kd

Record request: Kd value, item VVDALRNIY ≥ 20 µM

---

Target: HLA-A*02:06
Test: IEDB peptide-MHC binding, purified MHC/competitive/radioactivity; filed as Kd, often an IC50 or EC50 that approximates it; bounds were set here for any values at or beyond the usual limits of such assays
Settings: source organism: Vaccinia virus WR
For each of the sequences below, state its pKd.
Numbers only, as −log10 of the molar value.

GLCNYGGIL : 5.87
STDQDTMLFA : 5.69
GMQFDKVYL : 5.72

Fill in pKd for each of the 8 sequences listed.
1. MTSTRTIIL
2. NTIAVITETI
3. FTILEYLYI
4. FVTDYVHEGV
5. LMIGNYFSGV
6. DTCLLAISAV
7. RTWKVLSIMA
8. STAEQLSKYV

5.17
6.11
6.57
7.97
9.88
6.97
5.24
6.16

---

Target: HLA-B*39:01
Experiment: IEDB peptide-MHC binding, purified MHC/competitive/fluorescence; filed as Kd, often an IC50 or EC50 that approximates it; bounds were set here for any values at or beyond the usual limits of such assays
Conditions: source organism: Francisella tularensis subsp. tularensis FSC198
result.type: pKd
Answers are plain numbers, as −log10 of the molar value.

Give pKd (HLA-B*39:01) of the following sequence: REIGDISYL 6.51

---

Target: HLA-B*48:01
Experiment: IEDB peptide-MHC binding, purified MHC/competitive/fluorescence; filed as Kd, often an IC50 or EC50 that approximates it; bounds were set here for any values at or beyond the usual limits of such assays
Conditions: source organism: Francisella tularensis subsp. tularensis FSC198
result.type: Kd

Give Kd (HLA-B*48:01) of the following sequence: REIGDISYL ≥ 20 µM

---

Molecular target: HLA-A*24:03
Assay: IEDB peptide-MHC binding, purified MHC/direct/fluorescence; filed as Kd, often an IC50 or EC50 that approximates it; bounds were set here for any values at or beyond the usual limits of such assays
Conditions: source organism: Mycobacterium tuberculosis
result.type: Kd (pM)
One number for each entry, in pM.

Record request: Kd value, item YYIIETEHL 200

---

Biological target: HLA-A*02:19
Test: IEDB peptide-MHC binding, purified MHC/competitive/fluorescence; filed as Kd, often an IC50 or EC50 that approximates it; bounds were set here for any values at or beyond the usual limits of such assays
Details: source organism: Influenza A virus (A/red knot/Delaware/2561/1987(H10N5))
pKd: −log10 of the molar value.
result.type: pKd

Give pKd (HLA-A*02:19) of the following sequence: VMTDGPANK ≤ 4.70

---

Molecular target: HLA-A*01:01
Assay: IEDB peptide-MHC binding, purified MHC/direct/fluorescence; filed as Kd, often an IC50 or EC50 that approximates it; bounds were set here for any values at or beyond the usual limits of such assays
Conditions: source organism: Influenza A virus (A/turkey/Minnesota/511/1978(H9N2))
pKd: −log10 of the molar value.
result.type: pKd

Give pKd (HLA-A*01:01) of the following sequence: DLLENLQAY ≤ 4.70

---

Molecular target: HLA-A*11:01
Test: IEDB peptide-MHC binding, purified MHC/direct/fluorescence; filed as Kd, often an IC50 or EC50 that approximates it; bounds were set here for any values at or beyond the usual limits of such assays
Conditions: source organism: Influenza A virus (A/Hong Kong/213/2003(H5N1))
result.type: Kd

Record request: Kd value, item CFMYSDFHF ≥ 20 µM

---

Molecular target: HLA-A*68:02
Assay: IEDB peptide-MHC binding, purified MHC/direct/fluorescence; filed as Kd, often an IC50 or EC50 that approximates it; bounds were set here for any values at or beyond the usual limits of such assays
Conditions: source organism: Reston ebolavirus
result.type: Kd

Record request: Kd value, item RTYSLLNRK ≥ 20 µM

---

Biological target: HLA-B*35:01
Test: IEDB peptide-MHC binding, purified MHC/competitive/fluorescence; filed as Kd, often an IC50 or EC50 that approximates it; bounds were set here for any values at or beyond the usual limits of such assays
Conditions: source organism: Shigella flexneri 5 str. 8401
result.type: Kd (nM)
Answers are plain numbers, in nM.

Record request: Kd value, item LPRRLQLLF 2.9

---

Molecular target: HLA-A*26:01
Assay: IEDB peptide-MHC binding, purified MHC/competitive/fluorescence; filed as Kd, often an IC50 or EC50 that approximates it; bounds were set here for any values at or beyond the usual limits of such assays
Details: source organism: Araucaria virus
result.type: Kd

Record request: Kd value, item ELRQLAQSL ≥ 20 µM

---

Target: HLA-B*46:01
Test: IEDB peptide-MHC binding, purified MHC/direct/fluorescence; filed as Kd, often an IC50 or EC50 that approximates it; bounds were set here for any values at or beyond the usual limits of such assays
Details: source organism: Escherichia coli O157:H7
pKd: −log10 of the molar value.
result.type: pKd

Give pKd (HLA-B*46:01) of the following sequence: PLKVKDIPF ≤ 4.70

meta.source: the Immune Epitope Database (IEDB)
